Assay procedure: clinical
Test settings: male, human, in vivo, 4 mg, T½
Readout label: half-life (h)
Numeric answer only, unit h assumed.

Quick one: half-life for Cc1nccn1C[C@H]1CCc2c(c3cccc4c3n2CCC4)C1=O ? 1.55

* * *

Assay procedure: clinical
Test settings: both, human, in vivo, 32 mg, T½
Readout label: half-life (h)
Numeric answer only, unit h assumed.

Quick one: half-life for Cc1nccn1C[C@H]1CCc2c(c3cccc4c3n2CCC4)C1=O [Cilansetron] ? 1.22

* * *

Assay procedure: clinical
Test settings: male, human, in vivo, po, 16 mg
Readout label: Tmax (h)
Numeric answer only, unit h assumed.

Quick one: Tmax for Cc1nccn1C[C@H]1CCc2c(c3cccc4c3n2CCC4)C1=O ? 1

* * *

Assay procedure: Study S.241.1.104: Ortho Tri-Cyclen pharmacokinetics with cilansetron 2 mg TID
Format: in vivo, human
Test settings: female, human, plasma, oral, ORC + Cilansetron 2 mg TID; Day 21; median
Readout label: Tmax (h)
Numeric answer only, unit h assumed.

Quick one: Tmax for C#C[C@]1(O)CC[C@H]2[C@@H]3CCc4cc(O)ccc4[C@H]3CC[C@@]21C [EE, ethinyl estradiol] ? 1.25

* * *

Assay procedure: Study S.241.1.103: 14C mass balance, 8 mg oral and IV
Format: in vivo, human
Test settings: male, human, in vivo, po
Readout label: Tmax

Quick one: Tmax for Cc1nccn1C[C@H]1CCc2c(c3cccc4c3n2CCC4)C1=O ? 30.6 min

* * *

Assay procedure: clinical
Test settings: male, human, in vivo, iv, 4 mg
Readout label: AUC(0-t)
Give the value; after it, write the unit.

Quick one: AUC(0-t) for Cc1nccn1C[C@H]1CCc2c(c3cccc4c3n2CCC4)C1=O ? 100 ng·h/mL

* * *

Assay procedure: clinical
Test settings: male, human, in vivo, iv, 8 mg, Systemic plasma clearance
Procedure: The single- and multiple-dose pharmacokinetics of cilansetron 8 mg administered intravenously have been studied in a randomized, double-blind, placebo controlled, parallel group study in 12 male subjects (10 subjects received cilansetron 8 mg and 2 received placebo, administered as a 30-minute infusion). […] Doses on pharmacokinetic days were administered under fasted conditions. […] Renal elimination was again observed to be negligible (≦1% of dose).
Readout label: clearance (mL/min)
Numeric answer only, unit mL/min assumed.

Quick one: clearance for Cc1nccn1C[C@H]1CCc2c(c3cccc4c3n2CCC4)C1=O [Cilansetron] ? 800

* * *

Assay procedure: clinical
Test settings: male, human, in vivo, 4 mg, Tmax
Readout label: Tmax (h)
Numeric answer only, unit h assumed.

Quick one: Tmax for Cc1nccn1C[C@H]1CCc2c(c3cccc4c3n2CCC4)C1=O ? 1.38

* * *

Assay procedure: clinical
Test settings: both, human, in vivo, 16 mg
Readout label: AUC(0-t) (ng·h/mL)
Numeric answer only, unit ng·h/mL assumed.

Quick one: AUC(0-t) for Cc1nccn1C[C@H]1CCc2c(c3cccc4c3n2CCC4)C1=O [Cilansetron] ? 264

* * *

Assay procedure: clinical
Test settings: male, human, in vivo, po, 8 mg, AUC (0-inf)
Readout label: AUC(0-inf)

Quick one: AUC(0-inf) for Cc1nccn1C[C@H]1CCc2c(c3cccc4c3n2CCC4)C1=O [Cilansetron] ? 66 ng·h/mL

* * *

Assay procedure: clinical
Test settings: male, human, in vivo, 8 mg, Cmax
Readout label: Cmax

Quick one: Cmax for Cc1nccn1C[C@H]1CCc2c(c3cccc4c3n2CCC4)C1=O [Cilansetron] ? 35.8 ng/mL

* * *

Assay procedure: clinical
Format: in vitro ADME
Test settings: male, human, plasma; 8 mg oral/IV, 30, 45, 120 minutes; read-out: Fraction bound
Readout label: fraction unbound

Quick one: fraction unbound for Cc1nccn1C[C@H]1CCc2c(c3cccc4c3n2CCC4)C1=O ? 0.02 to 0.04

* * *

Assay procedure: clinical
Test settings: male, human, in vivo, po, AUC (0-inf)
Readout label: AUC(0-inf) (ng·h/mL)
Numeric answer only, unit ng·h/mL assumed.

Quick one: AUC(0-inf) for Cc1nccn1C[C@H]1CCc2c(c3cccc4c3n2CCC4)C1=O [Cilansetron] ? 74

* * *

Assay procedure: clinical
Test settings: both, human, in vivo, 16 mg
Readout label: Cmax
Give the value; after it, write the unit.

Quick one: Cmax for Cc1nccn1C[C@H]1CCc2c(c3cccc4c3n2CCC4)C1=O ? 102 ng/mL

* * *

Assay procedure: Study S241.1.111: relative bioavailability and food effect, 2 mg tablet vs oral solution
Format: in vivo, human
Test settings: both sexes, human, in vivo, 2 mg, Tmax
Readout label: Tmax (h)
Numeric answer only, unit h assumed.

Quick one: Tmax for Cc1nccn1C[C@H]1CCc2c(c3cccc4c3n2CCC4)C1=O ? 1

* * *

Assay procedure: clinical
Test settings: female, human, in vivo, 32 mg, Cmax
Readout label: Cmax (ng/mL)
Numeric answer only, unit ng/mL assumed.

Quick one: Cmax for Cc1nccn1C[C@H]1CCc2c(c3cccc4c3n2CCC4)C1=O ? 210

* * *

Assay procedure: clinical
Test settings: female, human, in vivo, 32 mg, T½
Readout label: half-life (h)
Numeric answer only, unit h assumed.

Quick one: half-life for Cc1nccn1C[C@H]1CCc2c(c3cccc4c3n2CCC4)C1=O ? 1.08

* * *

Assay procedure: clinical
Test settings: male, human, in vivo, iv, CL
Readout label: clearance (mL/min)
Numeric answer only, unit mL/min assumed.

Quick one: clearance for Cc1nccn1C[C@H]1CCc2c(c3cccc4c3n2CCC4)C1=O [Cilansetron] ? 590

* * *

Assay procedure: clinical
Test settings: male, human, in vivo, 32 mg, T½
Readout label: half-life (h)
Numeric answer only, unit h assumed.

Quick one: half-life for Cc1nccn1C[C@H]1CCc2c(c3cccc4c3n2CCC4)C1=O ? 1.4

* * *

Assay procedure: clinical
Test settings: male, human, in vivo, po, 64 mg
Experimental: Two randomized, double-blind, placebo controlled, rising dose, crossover studies evaluated the single-dose pharmacokinetics of oral cilansetron over a 4 mg to 64 mg dose range. […] Data for the evaluation of dose proportionality of oral cilansetron is available from three studies which have evaluated the pharmacokinetics of single doses over a 2 mg to 64 mg dose range. […]
Readout label: half-life (h)
Numeric answer only, unit h assumed.

Quick one: half-life for Cc1nccn1C[C@H]1CCc2c(c3cccc4c3n2CCC4)C1=O [Cilansetron] ? 1.3

* * *

Assay procedure: clinical
Test settings: male, human, in vivo, po, 4 mg
Readout label: half-life (h)
Numeric answer only, unit h assumed.

Quick one: half-life for Cc1nccn1C[C@H]1CCc2c(c3cccc4c3n2CCC4)C1=O [Cilansetron] ? 1.56

* * *

Assay procedure: clinical
Test settings: male, human, in vivo, po, 32 mg, AUC
Readout label: AUC (µg·h/mL)
Numeric answer only, unit µg·h/mL assumed.

Quick one: AUC for Cc1nccn1C[C@H]1CCc2c(c3cccc4c3n2CCC4)C1=O [Cilansetron] ? 0.469

* * *

Assay procedure: clinical
Test settings: female, human, in vivo, po, 8 mg, Cmax
Readout label: Cmax (ng/mL)
Numeric answer only, unit ng/mL assumed.

Quick one: Cmax for Cc1nccn1C[C@H]1CCc2c(c3cccc4c3n2CCC4)C1=O ? 52.2

* * *

Assay procedure: clinical
Test settings: human, in vivo, iv
Readout label: clearance

Quick one: clearance for Cc1nccn1C[C@H]1CCc2c(c3cccc4c3n2CCC4)C1=O ? 550 to 800 mL/min

* * *

Assay procedure: clinical
Test settings: male, human, in vivo, po, 64 mg
Readout label: AUC(0-t)

Quick one: AUC(0-t) for Cc1nccn1C[C@H]1CCc2c(c3cccc4c3n2CCC4)C1=O ? 807 ng·h/mL

* * *

Assay procedure: clinical
Test settings: male, human, in vivo, 8 mg, T½
Readout label: half-life (h)
Numeric answer only, unit h assumed.

Quick one: half-life for Cc1nccn1C[C@H]1CCc2c(c3cccc4c3n2CCC4)C1=O ? 1.22

* * *

Assay procedure: Study S241.1.111: relative bioavailability and food effect, 2 mg tablet vs oral solution
Format: in vivo, human
Test settings: both sexes, human, in vivo, 2 mg, AUC(0-inf)
Readout label: AUC(0-inf) (ng·h/mL)
Numeric answer only, unit ng·h/mL assumed.

Quick one: AUC(0-inf) for Cc1nccn1C[C@H]1CCc2c(c3cccc4c3n2CCC4)C1=O [Cilansetron] ? 22.8

* * *

Assay procedure: Study S.241.1.103: 14C mass balance, 8 mg oral and IV
Assay type: in vivo, human
Test settings: male, human, in vivo, iv, CL (plasma)
Readout label: clearance
Give the value; after it, write the unit.

Quick one: clearance for Cc1nccn1C[C@H]1CCc2c(c3cccc4c3n2CCC4)C1=O ? 655 mL/min

* * *

Assay procedure: Study S.241.2.112: population pharmacokinetics (NONMEM) in IBS patients
Format: in vivo, human
Test settings: both sexes, human, in vivo, 2 mg
Readout label: half-life (min)
Numeric answer only, unit min assumed.

Quick one: half-life for Cc1nccn1C[C@H]1CCc2c(c3cccc4c3n2CCC4)C1=O ? 258

* * *

Assay procedure: Study S.241.1.109: single and multiple dose pharmacokinetics 2 mg TID
Format: in vivo, human
Test settings: both sexes, human, in vivo, 2 mg, Cmax
Readout label: Cmax (ng/mL)
Numeric answer only, unit ng/mL assumed.

Quick one: Cmax for Cc1nccn1C[C@H]1CCc2c(c3cccc4c3n2CCC4)C1=O [Cilansetron] ? 6.63
